System: THP-1 ASC-GFP cells
assay.method.text: THP-1 ASC-GFP speck assay (NLRP3 inflammasome activation, nigericin)
Assay type: cell-based
assay.conditions: THP1-ASC-GFP; PMA-differentiated, LPS primed, 10 μM nigericin
pIC50: −log10 of the molar value.
test.readout: pIC50

{"columns": ["compound", "qual", "meas.value"],
 "data": [
  ["O=C(Nc1nc(-c2ccccc2)cc(C(F)(F)F)n1)NS(=O)(=O)c1cnn2c1OCCC2 [Example 17]", "<", 5.01],
  ["CNc1cc(C(C)C)c(NC(=O)NS(=O)(=O)c2cnn3c2OCCC3)c(C(C)C)n1 [Example 53]", "=", 5.48],
  ["CC(C)c1nn(CC2CC2)c(C(C)C)c1NC(=O)NS(=O)(=O)c1cnn2c1OCCC2 [Example 35]", "=", 5.85],
  ["CCn1nc(C(C)C)c(NC(=O)NS(=O)(=O)c2cnn3c2OC[C@@H](OC)C3)c1C(C)C [Example 39a]", "=", 6.40]
]}

====

# Lookup of reported IC50 keyed by entry
assayed.target: NLRP3 inflammasome (Homo sapiens)
Construct: freshly isolated from human peripheral blood from healthy donors; StemCells Technologies; host or cells: primary human PBMCs
Sequence (Q96P20 whole entry): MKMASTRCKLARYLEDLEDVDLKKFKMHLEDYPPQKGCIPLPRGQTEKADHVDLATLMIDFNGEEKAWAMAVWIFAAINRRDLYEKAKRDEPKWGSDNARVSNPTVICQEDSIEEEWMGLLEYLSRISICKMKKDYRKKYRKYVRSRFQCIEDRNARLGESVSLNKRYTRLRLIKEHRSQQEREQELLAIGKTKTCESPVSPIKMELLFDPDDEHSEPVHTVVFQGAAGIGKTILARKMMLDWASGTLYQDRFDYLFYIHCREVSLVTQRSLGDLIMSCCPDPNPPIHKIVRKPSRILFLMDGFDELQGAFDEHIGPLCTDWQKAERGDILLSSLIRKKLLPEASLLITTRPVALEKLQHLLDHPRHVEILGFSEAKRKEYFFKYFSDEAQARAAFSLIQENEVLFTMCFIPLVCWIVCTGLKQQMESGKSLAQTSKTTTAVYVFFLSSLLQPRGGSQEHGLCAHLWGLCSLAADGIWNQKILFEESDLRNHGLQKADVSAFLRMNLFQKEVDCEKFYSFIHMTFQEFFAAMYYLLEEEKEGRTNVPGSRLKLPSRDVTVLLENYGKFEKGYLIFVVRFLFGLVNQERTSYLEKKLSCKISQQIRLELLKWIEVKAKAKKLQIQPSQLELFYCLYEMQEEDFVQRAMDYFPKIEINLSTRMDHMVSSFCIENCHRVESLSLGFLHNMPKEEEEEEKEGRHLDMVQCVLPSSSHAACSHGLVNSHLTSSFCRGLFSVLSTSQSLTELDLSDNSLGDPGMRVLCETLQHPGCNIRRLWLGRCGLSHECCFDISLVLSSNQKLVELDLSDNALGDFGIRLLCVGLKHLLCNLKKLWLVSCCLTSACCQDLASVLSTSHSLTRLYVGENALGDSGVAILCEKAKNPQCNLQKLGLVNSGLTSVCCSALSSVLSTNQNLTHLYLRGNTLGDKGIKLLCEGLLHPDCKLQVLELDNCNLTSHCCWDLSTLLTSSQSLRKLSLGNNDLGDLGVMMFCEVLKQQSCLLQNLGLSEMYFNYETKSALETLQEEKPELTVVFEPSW
assay.method.text: NLRP3 inflammasome activation assay in LPS-primed, nigericin-stimulated PBMCs, IL-1β release
Format: cell-based
assay.conditions: PBMC, LPS priming, 10 μM nigericin; read-out: PMBC IL-1β IC50
test.readout: IC50 (nM)

{"columns": ["compound", "assayed.target", "test.readout", "display.unit", "qual", "meas.value"],
 "data": [
  ["CC(C)c1cncc(C(C)C)c1NC(=O)NS(=O)(=O)c1cnn2c1OCCC2 [Example 28]", "NLRP3 inflammasome (Homo sapiens)", "IC50", "nM", "=", 1790],
  ["CC(C)c1cc(C(F)(F)F)nc(C(C)C)c1NC(=O)NS(=O)(=O)c1cnn2c1OCCC2 [Example 54]", "NLRP3 inflammasome (Homo sapiens)", "IC50", "nM", "=", 320],
  ["Cc1cc(C)nc(NC(=O)NS(=O)(=O)c2cnn3c2OCCC3)n1 [Example 25]", "NLRP3 inflammasome (Homo sapiens)", "IC50", "nM", ">", 10000],
  ["COc1cc(C(C)C)c(NC(=O)NS(=O)(=O)c2cnn3c2OCCC3)c(C(C)C)n1 [Example 30]", "NLRP3 inflammasome (Homo sapiens)", "IC50", "nM", "=", 850],
  ["CC(C)n1nc2c(c1NC(=O)NS(=O)(=O)c1cnn3c1OCCC3)CCC2 [Example 44]", "NLRP3 inflammasome (Homo sapiens)", "IC50", "nM", "=", 1220],
  ["CC(C)c1cc(Cl)nc(C(C)C)c1NC(=O)NS(=O)(=O)c1cnn2c1OCCC2 [Example 32]", "NLRP3 inflammasome (Homo sapiens)", "IC50", "nM", "=", 590],
  ["CC(C)(C)c1cc(C(C)(C)C)nc(NC(=O)NS(=O)(=O)c2cnn3c2OCCC3)n1 [Example 22]", "NLRP3 inflammasome (Homo sapiens)", "IC50", "nM", ">", 10000],
  ["CC1CCCC(C)N1NC(=O)NS(=O)(=O)c1cnn2c1OCCC2 (mixture of isomers) [Example 7]", "NLRP3 inflammasome (Homo sapiens)", "IC50", "nM", ">", 10000],
  ["CC1Cc2ccccc2C1NC(=O)NS(=O)(=O)c1cnn2c1OCCC2 (stereo not drawn) [Example 6]", "NLRP3 inflammasome (Homo sapiens)", "IC50", "nM", ">", 10000],
  ["O=C(NC1C2CC3CC(C2)CC1C3)NS(=O)(=O)c1cnn2c1OCCC2 (stereo not drawn) [Example 3]", "NLRP3 inflammasome (Homo sapiens)", "IC50", "nM", "=", 2080],
  ["CC(C)c1ccnc(C(C)C)c1NC(=O)NS(=O)(=O)c1cnn2c1OCCC2 [Example 31]", "NLRP3 inflammasome (Homo sapiens)", "IC50", "nM", "=", 4380],
  ["Cc1onc(-c2ccccc2)c1NC(=O)NS(=O)(=O)c1cnn2c1OCCC2 [Example 8]", "NLRP3 inflammasome (Homo sapiens)", "IC50", "nM", ">", 10000],
  ["O=C(NC1(c2ccccc2)CCCCCC1)NS(=O)(=O)c1cnn2c1OCCC2 [Example 12]", "NLRP3 inflammasome (Homo sapiens)", "IC50", "nM", ">", 10000],
  ["Cc1nc(NC(=O)NS(=O)(=O)c2cnn3c2OCCC3)nc2c1CCCC2 [Example 24]", "NLRP3 inflammasome (Homo sapiens)", "IC50", "nM", ">", 10000],
  ["COc1cc(C(C)C)c(NC(=O)NS(=O)(=O)c2cnn3c2OCC(C)(C)C3)c(C(C)C)n1 [Example 47]", "NLRP3 inflammasome (Homo sapiens)", "IC50", "nM", "=", 2010],
  ["O=C(NC1c2ccccc2CC12CCOCC2)NS(=O)(=O)c1cnn2c1OCCC2 (stereo not drawn) [Example 2]", "NLRP3 inflammasome (Homo sapiens)", "IC50", "nM", ">", 10000],
  ["O=C(Nc1nc(-c2ccccc2)cc(C(F)(F)F)n1)NS(=O)(=O)c1cnn2c1OCCC2 [Example 17]", "NLRP3 inflammasome (Homo sapiens)", "IC50", "nM", ">", 10000],
  ["Cc1cc(C(C)C)c(NC(=O)NS(=O)(=O)c2cnn3c2OCCC3)c(C(C)C)n1 [Example 48]", "NLRP3 inflammasome (Homo sapiens)", "IC50", "nM", "=", 2470],
  ["Cc1cc(NC(=O)NS(=O)(=O)c2cnn3c2OCCC3)n(C(C)C)n1 [Example 43]", "NLRP3 inflammasome (Homo sapiens)", "IC50", "nM", ">", 10000],
  ["O=C(NC(c1ccccc1)c1ccccc1)NS(=O)(=O)c1cnn2c1OCCC2 [Example 15]", "NLRP3 inflammasome (Homo sapiens)", "IC50", "nM", ">", 10000],
  ["COc1cc(C(C)C)c(NC(=O)NS(=O)(=O)c2cnn3c2OCC(CNC(C)=O)C3)c(C(C)C)n1 (racemic) [Example 40]", "NLRP3 inflammasome (Homo sapiens)", "IC50", "nM", "=", 1500],
  ["CCn1nc(C(C)C)c(NC(=O)NS(=O)(=O)c2cnn3c2OCCC3)c1C(C)C [Example 34]", "NLRP3 inflammasome (Homo sapiens)", "IC50", "nM", "=", 3190],
  ["O=C(NC1(c2ccccc2)CC1)NS(=O)(=O)c1cnn2c1OCCC2 [Example 11]", "NLRP3 inflammasome (Homo sapiens)", "IC50", "nM", ">", 10000],
  ["O=C(NN1CCCCCC1)NS(=O)(=O)c1cnn2c1OCCC2 [Example 14]", "NLRP3 inflammasome (Homo sapiens)", "IC50", "nM", ">", 10000],
  ["CO[C@@H]1COc2c(S(=O)(=O)NC(=O)Nc3c(C(C)C)nn(C)c3C(C)C)cnn2C1 [Example 38a]", "NLRP3 inflammasome (Homo sapiens)", "IC50", "nM", "=", 1140],
  ["CC(C)c1cc(N(C)C)nc(C(C)C)c1NC(=O)NS(=O)(=O)c1cnn2c1OCCC2 [Example 51]", "NLRP3 inflammasome (Homo sapiens)", "IC50", "nM", "=", 2070],
  ["CN[C@@H]1COc2c(S(=O)(=O)NC(=O)Nc3c(C(C)C)cc(OC)nc3C(C)C)cnn2C1 [Example 41a]", "NLRP3 inflammasome (Homo sapiens)", "IC50", "nM", "=", 370],
  ["O=C(Nc1c2c(n3c1CCC3)CCCC2=O)NS(=O)(=O)c1cnn2c1OCCC2 [Example 29]", "NLRP3 inflammasome (Homo sapiens)", "IC50", "nM", ">", 10000],
  ["CC(C)NC(=O)NS(=O)(=O)c1cnn2c1OCC(CN)C2 (racemic) [Example 56]", "NLRP3 inflammasome (Homo sapiens)", "IC50", "nM", ">", 10000],
  ["CCOc1cc(C(C)C)c(NC(=O)NS(=O)(=O)c2cnn3c2OCCC3)c(C(C)C)n1 [Example 50]", "NLRP3 inflammasome (Homo sapiens)", "IC50", "nM", "=", 2810],
  ["CNc1cc(C(C)C)c(NC(=O)NS(=O)(=O)c2cnn3c2OCCC3)c(C(C)C)n1 [Example 53]", "NLRP3 inflammasome (Homo sapiens)", "IC50", "nM", "=", 3400],
  ["Cc1ccc(Br)c(NC(=O)NS(=O)(=O)c2cnn3c2OCCC3)n1 [Example 20]", "NLRP3 inflammasome (Homo sapiens)", "IC50", "nM", ">", 10000],
  ["CC(C)(C)c1cc(NC(=O)NS(=O)(=O)c2cnn3c2OCCC3)n(C(C)(C)C)n1 [Example 36]", "NLRP3 inflammasome (Homo sapiens)", "IC50", "nM", ">", 10000]
]}

Origin of measurements: patent US11560391B2
